System: EKVX
Test: NCI-60 SRB screen
Details: 48 h
Under this convention, 1 (yes) denotes TGI strictly below 6 µM and 0 (no) denotes TGI at or above 6 µM.

[[record]]
compound = "CCCC(C(=O)O)N1C(=O)/C(=C/C=C/c2ccc([N+](=O)[O-])o2)SC1=S (centres unmarked)"
study_system = "EKVX"
assigned_class = "0 (no)"

[[record]]
compound = "O=C(O)CCN1C(=O)/C(=C/C=C/c2ccc([N+](=O)[O-])o2)SC1=S [12b]"
study_system = "EKVX"
assigned_class = "0 (no)"

[[record]]
compound = "CC(C)C(C(=O)O)N1C(=O)/C(=C/C=C/c2ccc([N+](=O)[O-])o2)SC1=S (centres unmarked)"
study_system = "EKVX"
assigned_class = "1 (yes)"

[[record]]
compound = "CCCCC(C(=O)O)N1C(=O)/C(=C/C=C/c2ccc([N+](=O)[O-])o2)SC1=S (centres unmarked)"
study_system = "EKVX"
assigned_class = "1 (yes)"

[[record]]
compound = "O=C(O)C(c1ccccc1)N1C(=O)/C(=C/C=C/c2ccc([N+](=O)[O-])o2)SC1=S (centres unmarked)"
study_system = "EKVX"
assigned_class = "0 (no)"


* * *

System: Colon cancer
Test: NCI-60 SRB screen, subpanel
Conditions: Colon cancer subpanel
Under this convention, true denotes MG_MID TGI strictly below 2000 nM and false denotes MG_MID TGI at or above 2000 nM.

[[record]]
molecule = "O=C(O)CCCN1C(=O)/C(=C/C=C/c2ccc([N+](=O)[O-])o2)SC1=S [13b]"
study_system = "Colon cancer"
assigned_class = "true"

[[record]]
molecule = "CCCCC(C(=O)O)N1C(=O)/C(=C/C=C/c2ccc([N+](=O)[O-])o2)SC1=S (stereo not shown)"
study_system = "Colon cancer"
assigned_class = "false"

[[record]]
molecule = "CC(C)C(C(=O)O)N1C(=O)/C(=C/C=C/c2ccc([N+](=O)[O-])o2)SC1=S (stereo not shown)"
study_system = "Colon cancer"
assigned_class = "false"

[[record]]
molecule = "O=C(O)CCN1C(=O)/C(=C/C=C/c2ccc([N+](=O)[O-])o2)SC1=S [12b]"
study_system = "Colon cancer"
assigned_class = "false"

[[record]]
molecule = "O=C(O)C(c1ccccc1)N1C(=O)/C(=C/C=C/c2ccc([N+](=O)[O-])o2)SC1=S (stereo not shown)"
study_system = "Colon cancer"
assigned_class = "false"

[[record]]
molecule = "O=C(O)CCCCCN1C(=O)/C(=C/C=C/c2ccc([N+](=O)[O-])o2)SC1=S [14b]"
study_system = "Colon cancer"
assigned_class = "true"

[[record]]
molecule = "CCCC(C(=O)O)N1C(=O)/C(=C/C=C/c2ccc([N+](=O)[O-])o2)SC1=S (stereo not shown)"
study_system = "Colon cancer"
assigned_class = "false"


* * *

Test system: 786-0
Settings: 786-0, 48 h
ASSAY READOUT: TGI (µM)

[[record]]
compound = "O=C(O)CCN1C(=O)/C(=C/C=C/c2ccc([N+](=O)[O-])o2)SC1=S [12b]"
value_unit = "µM"
numeric_value = 3.54

[[record]]
compound = "O=C(O)C(c1ccccc1)N1C(=O)/C(=C/C=C/c2ccc([N+](=O)[O-])o2)SC1=S (centres unmarked)"
value_unit = "µM"
numeric_value = 12.8

[[record]]
compound = "CC(C)C(C(=O)O)N1C(=O)/C(=C/C=C/c2ccc([N+](=O)[O-])o2)SC1=S (centres unmarked)"
value_unit = "µM"
numeric_value = 3.70

[[record]]
compound = "CCCCC(C(=O)O)N1C(=O)/C(=C/C=C/c2ccc([N+](=O)[O-])o2)SC1=S (centres unmarked)"
value_unit = "µM"
numeric_value = 9.30

[[record]]
compound = "CCCC(C(=O)O)N1C(=O)/C(=C/C=C/c2ccc([N+](=O)[O-])o2)SC1=S (centres unmarked)"
value_unit = "µM"
numeric_value = 12.6

